Recorded values, source paper PMC5896266.

# target_or_test_system: Human MMP-2 catalytic domain (Homo sapiens, UniProt P08253, DEL222-396)
# Construct: Human MMP-2 catalytic domain (residues 110-221, 397-455); made in house
# Sequence (P08253 with tags, fused parts or gaps DEL222-396 limits assumed): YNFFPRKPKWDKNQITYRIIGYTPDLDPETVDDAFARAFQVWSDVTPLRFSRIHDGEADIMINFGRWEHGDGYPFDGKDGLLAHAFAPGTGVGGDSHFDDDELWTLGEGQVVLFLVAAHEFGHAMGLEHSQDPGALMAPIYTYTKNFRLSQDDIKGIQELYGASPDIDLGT
# test_name: Fluorometric MMP-2 inhibition assay (MTS), catalytic domain
# Type: biochemical
# conditions: Table 2
assay_endpoint: IC50 (µM)

Use these answered entries as a reference point.
INSERT INTO results (compound, assay_endpoint, unit, measured_result) VALUES
  ('O=C(O)c1c[nH]c(CN(Cc2ccc(F)cc2)Cc2ccc(OC(c3ccccc3)c3ccccc3)cc2)n1 [MMPI-1245]', 'IC50', 'µM', 35),
  ('O=C(O)C(c1ccccc1)N(Cc1ccc(OCc2ccccc2)cc1)Cc1cccc(F)c1 (centres unmarked) [MMPI-1140]', 'IC50', 'µM', 20),
  ('O=C(O)c1csc(CN(Cc2ccc(F)cc2)Cc2ccc(OCc3ccncc3)cc2)n1 [MMPI-1248]', 'IC50', 'µM', 8),
  ('O=C(O)c1csc(CN(Cc2ccc(OCc3ccccc3)cc2)Cc2cccnc2)n1 [MMPI-1253]', 'IC50', 'µM', 90);

(I) O=C(O)c1csc(CN(Cc2ccc(F)cc2)Cc2ccc(-c3ccccc3)cc2)n1 [MMPI-1254]
(II) O=C(O)c1c[nH]c(CN(Cc2ccc(F)cc2)Cc2ccc(OCc3ccccc3)cc2)n1 [MMPI-1154]
Response body: label of entry with the larger IC50; valid values I , II . Could you answer with the label of the item you picked?
I
(I: 30 µM, II: 6.6 µM)

(1) O=C(O)c1csc(CN(Cc2ccc(OCc3ccccc3)cc2)C(c2ccccc2)c2ccccc2)n1 [MMPI-1155]
(2) Cc1ccc(CN(Cc2ccc(OCc3ccccc3)cc2)Cc2nc(C(=O)O)c[nH]2)cc1 [MMPI-1247]
Please let me know which one, 1 or 2 , has a lower measured IC50 value. Could you answer with the label of the item you picked?
2
(2: 15 µM, 1: 25 µM)

(A) O=C(O)c1csc(CN(Cc2ccc(OCc3ccccc3)cc2)Cc2cccc(F)c2)n1 [MMPI-1133]
(B) O=C(O)c1csc(CN(Cc2ccc(F)cc2)Cc2ccc(OCc3cccnc3)cc2)n1 [MMPI-1260]
Response body: label of entry with the larger IC50; valid values A , B . Could you answer with the label of the item you picked?
A

* * *

IC50 data for MMP-13 (Homo sapiens, UniProt P45452) follow.
assay_endpoint: IC50 (µM)

(P) O=C(O)c1csc(CN(Cc2ccc(F)cc2)Cc2ccc(-c3ccccc3)cc2)n1
(Q) O=C(O)c1csc(CN(Cc2ccc(OCc3ccccc3)cc2)Cc2cccnc2)n1
(R) O=C(O)c1c[nH]c(CN(Cc2ccc(F)cc2)Cc2ccc(OC(c3ccccc3)c3ccccc3)cc2)n1
(S) O=C(O)c1csc(CN(Cc2ccc(OCc3ccccc3)cc2)Cc2cccc(F)c2)n1
Lab note: order the above by reported IC50, lowest first, highest last. The response must list the labels following the requested ordering.
R, P, S, Q
(R: 0.28 µM, P: 3 µM, S: 4.7 µM, Q: 8 µM)

* * *

# target_or_test_system: MMP-2 enzyme isolated from rat heart (Rattus norvegicus, UniProt P33436)
# Construct: we used full-length, active MMP-2 enzymes isolated from healthy young adult rat hearts; from tissue; host or cells: rat heart homogenate (healthy young adult rats)
# Sequence (P33436 110-662): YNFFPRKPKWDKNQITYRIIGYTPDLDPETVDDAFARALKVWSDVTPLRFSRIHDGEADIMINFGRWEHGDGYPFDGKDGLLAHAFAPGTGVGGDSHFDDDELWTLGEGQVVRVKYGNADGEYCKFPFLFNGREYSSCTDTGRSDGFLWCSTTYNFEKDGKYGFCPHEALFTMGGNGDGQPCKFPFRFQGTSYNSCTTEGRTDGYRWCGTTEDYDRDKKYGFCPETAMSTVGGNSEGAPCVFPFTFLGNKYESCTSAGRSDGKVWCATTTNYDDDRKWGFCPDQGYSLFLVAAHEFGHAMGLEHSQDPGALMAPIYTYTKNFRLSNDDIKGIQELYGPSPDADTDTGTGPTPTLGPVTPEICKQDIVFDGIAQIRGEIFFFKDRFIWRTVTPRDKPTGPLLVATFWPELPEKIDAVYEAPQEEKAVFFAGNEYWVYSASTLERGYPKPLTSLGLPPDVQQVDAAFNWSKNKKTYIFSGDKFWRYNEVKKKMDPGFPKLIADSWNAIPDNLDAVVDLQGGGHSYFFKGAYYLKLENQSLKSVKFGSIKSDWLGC
# test_name: Gelatin zymography on cardiac MMP-2
# Assay type: biochemical
# conditions: 100 μM, cardiac MMP-2, gelatin zymography; read-out: Inhibition (%)±SEM at 100 μM final MMP inhibitor concentration
assay_endpoint: inhibition at 100 µM (%)

Use these answered entries as a reference point.
INSERT INTO results (compound, assay_endpoint, unit, measured_result) VALUES
  ('Cc1ccc(CN(Cc2ccc(OCc3ccccc3)cc2)Cc2nc(C(=O)O)c[nH]2)cc1', 'inhibition at 100 µM', '%', 100),
  ('O=C(O)c1csc(CN(Cc2ccc(OCc3ccccc3)cc2)C(c2ccccc2)c2ccccc2)n1', 'inhibition at 100 µM', '%', 47),
  ('O=C(O)c1c[nH]c(CN(Cc2ccc(F)cc2)Cc2ccc(OC(c3ccccc3)c3ccccc3)cc2)n1', 'inhibition at 100 µM', '%', 100),
  ('O=C(O)c1c[nH]c(CN(Cc2ccc(F)cc2)Cc2ccc(OCc3ccccc3)cc2)n1', 'inhibition at 100 µM', '%', 100);

(1) O=C(O)c1csc(CN(Cc2ccc(OCc3ccccc3)cc2)Cc2cccnc2)n1
(2) O=C(O)c1csc(CN(Cc2ccc(OCc3ccccc3)cc2)Cc2cccc(F)c2)n1
Response body: label of entry with the larger inhibition at 100 µM; valid values 1 , 2 . Could you answer with the label of the item you picked?
1
